- test.system: MMP-9 (Homo sapiens, UniProt P14780)
- Sequence (P14780 107-707 limits assumed): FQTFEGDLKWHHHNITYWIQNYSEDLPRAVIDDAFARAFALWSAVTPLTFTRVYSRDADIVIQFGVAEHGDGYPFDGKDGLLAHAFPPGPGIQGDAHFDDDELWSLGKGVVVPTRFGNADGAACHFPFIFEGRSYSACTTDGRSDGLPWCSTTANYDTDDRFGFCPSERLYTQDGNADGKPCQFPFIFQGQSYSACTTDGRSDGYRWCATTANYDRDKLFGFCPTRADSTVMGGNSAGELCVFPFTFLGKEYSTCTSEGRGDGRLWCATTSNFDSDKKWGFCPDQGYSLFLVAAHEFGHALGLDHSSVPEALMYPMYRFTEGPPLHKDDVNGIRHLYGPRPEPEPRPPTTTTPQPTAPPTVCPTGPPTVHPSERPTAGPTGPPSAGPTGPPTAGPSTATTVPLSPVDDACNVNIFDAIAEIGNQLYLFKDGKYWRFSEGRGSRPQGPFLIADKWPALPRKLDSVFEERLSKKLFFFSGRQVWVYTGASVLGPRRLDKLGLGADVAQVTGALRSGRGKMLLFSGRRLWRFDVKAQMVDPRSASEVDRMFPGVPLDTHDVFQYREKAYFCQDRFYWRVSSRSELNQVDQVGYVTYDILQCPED
- assay.overview: biochemical
Ki values for the compounds below.
Numbers only; they are read as µM.

O=[N+]([O-])c1ccc(Oc2ccc(S(=O)(=O)CC3CO3)cc2)cc1 (stereo not drawn)    25

Observed Ki on MMP-9 (Homo sapiens, UniProt P14780), entry O=[N+]([O-])c1ccc(Oc2ccc(S(=O)(=O)CC3CS3)cc2)cc1 (stereo not drawn) , equals 1

Observed Ki on MMP-9 (Homo sapiens, UniProt P14780), entry CC(=O)Nc1ccc(Oc2ccc(S(=O)(=O)CC3CO3)cc2)cc1 (stereo not drawn) , equals 34

====

- test.system: MMP-3 (Homo sapiens, UniProt P08254)
- Sequence (P08254 100-272 limits assumed): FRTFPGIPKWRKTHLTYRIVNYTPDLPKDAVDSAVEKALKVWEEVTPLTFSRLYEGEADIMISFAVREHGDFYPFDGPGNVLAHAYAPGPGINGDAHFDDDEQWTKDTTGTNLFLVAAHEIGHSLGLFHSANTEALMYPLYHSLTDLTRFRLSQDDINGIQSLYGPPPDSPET
- test.parameters: MMP-3, rapid competitive inhibition
readout.label: pKi
FYI, pKi means -log10 of a concentration in mol per litre.

Form field pKi, entry CS(=O)(=O)Nc1ccc(Oc2ccc(S(=O)(=O)CC3CS3)cc2)cc1 (stereo not shown) : 5.44

====

- test.system: MMP-7 (Homo sapiens, UniProt P09237)
- Sequence (P09237 95-267): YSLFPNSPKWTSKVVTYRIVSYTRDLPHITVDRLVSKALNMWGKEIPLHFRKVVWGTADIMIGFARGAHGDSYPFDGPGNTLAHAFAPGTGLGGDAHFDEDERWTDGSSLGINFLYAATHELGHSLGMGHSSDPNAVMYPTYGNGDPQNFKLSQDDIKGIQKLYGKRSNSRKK
- test.parameters: MMP-7, rapid competitive inhibition
readout.label: pKi
FYI, pKi means -log10 of a concentration in mol per litre.

Form field pKi, entry CS(=O)(=O)Nc1ccc(Oc2ccc(S(=O)(=O)CC3CS3)cc2)cc1 (stereo not shown) [Compound 2.3] : 3.53

====

- assay.overview: Assessment of inhibitor solubility
- test.parameters: 37 °C, pH 7.5, aqueous with cosolvent or surfactant or cyclodextrin, kinetic from dmso stock
readout.label: solubility (µM)
Numbers only; they are read as µM.

Form field solubility, entry O=[N+]([O-])c1ccc(Oc2ccc(S(=O)(=O)CC3CS3)cc2)cc1 (stereo not shown) : 60

====

- test.system: UniProtKB P50281
- assay.overview: biochemical
readout.label: Ki

O=[N+]([O-])c1ccc(Oc2ccc(S(=O)(=O)CC3CO3)cc2)cc1 (stereo not drawn)    76 µM
CC(=O)Nc1ccc(Oc2ccc(S(=O)(=O)CC3CO3)cc2)cc1 (stereo not drawn)    > 230 µM

As a next step, examine the molecule that follows.
Observed Ki on UniProtKB P50281, entry O=[N+]([O-])c1ccc(Oc2ccc(S(=O)(=O)CC3CS3)cc2)cc1 (stereo not drawn) , equals 4.9 µM

====

Ki values for the molecules below.
- test.system: MMP-1 (Homo sapiens, UniProt P03956)
- Sequence (P03956 100-469): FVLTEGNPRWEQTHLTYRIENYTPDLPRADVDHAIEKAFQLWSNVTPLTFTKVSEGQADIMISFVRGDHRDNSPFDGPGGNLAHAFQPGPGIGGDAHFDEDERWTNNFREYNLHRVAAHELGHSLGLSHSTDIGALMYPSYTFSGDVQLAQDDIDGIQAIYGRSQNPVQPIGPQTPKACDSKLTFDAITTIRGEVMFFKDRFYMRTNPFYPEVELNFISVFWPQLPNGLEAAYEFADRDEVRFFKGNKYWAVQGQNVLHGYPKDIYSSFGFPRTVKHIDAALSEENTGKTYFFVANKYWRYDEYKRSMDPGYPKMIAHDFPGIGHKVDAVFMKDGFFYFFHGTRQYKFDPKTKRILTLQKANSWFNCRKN
- assay.overview: biochemical

# count of solved cases: 3
CC(=O)Nc1ccc(Oc2ccc(S(=O)(=O)CC3CO3)cc2)cc1 (stereo not shown)    > 154 µM
CS(=O)(=O)Nc1ccc(Oc2ccc(S(=O)(=O)CC3CS3)cc2)cc1 (stereo not shown)    > 25 µM
O=[N+]([O-])c1ccc(Oc2ccc(S(=O)(=O)CC3CO3)cc2)cc1 (stereo not shown)    > 298 µM

Observed Ki on MMP-1 (Homo sapiens, UniProt P03956), entry O=[N+]([O-])c1ccc(Oc2ccc(S(=O)(=O)CC3CS3)cc2)cc1 (stereo not shown) , equals 67 µM

====

Ki values for the compounds below.
- test.system: UniProt P08254
- assay.overview: biochemical

# count of solved cases: 2
O=[N+]([O-])c1ccc(Oc2ccc(S(=O)(=O)CC3CO3)cc2)cc1 (stereo not drawn) [Compound 2.4]    > 190 µM
O=[N+]([O-])c1ccc(Oc2ccc(S(=O)(=O)CC3CS3)cc2)cc1 (stereo not drawn) [Compound 2.5]    131 µM

Form field Ki, entry CC(=O)Nc1ccc(Oc2ccc(S(=O)(=O)CC3CO3)cc2)cc1 (stereo not drawn) [Compound 2.6] : > 188 µM
